B1: Zinc finger MYM-type protein 6, residues 427 to 504; numbered along this chain, O95789 (parent)
chain: KLKCQHCNHLFATKPELLFYKGKMFLFCGKNCSDEYKKKNKVVAMCDYCKLQKIIKETVRFSGVDKPFCSEVCKFLSA

variants of: B1; assay: abundance fitness (aPCA) (normalised: wild type 0, dead -1); higher = more abundant; growth selection in yeast, the domain comes from the species named; conditions: Homo sapiens
Class key for abundance fitness values: b0 = under -0.4, b1 = from -0.4 up to -0.06, b2 = -0.06 and over

* V72Q | b2
* F75S | b2
* G63R | b0
* C73D | b0
* S70Y | b0
* S77W | b1
* D34N | b0
* K50R | b1
* V64Q | b2
* C49T | b0
* K38E | b2
* F68P | b1
* K23S | b2
* G22T | b2
* F25I | b1
* L51C | b2
* D47V | b0
* S70M | b0
* A44V | b1
* E57S | b1
* M24E | b2
* V59D | b1
* A44M | b2
* V64I | b2
* K37S | b1
* K50Q | b2
* K23G | b1
* N40E | b1
* Q52K | b2
* A78C | b0
* C69T | b0
* C32P | b0
* S77C | b1
* G29T | b1

src = the Human Domainome abundance scans (Beltran et al. 2025)
